TESTED SYSTEM: membrane LIGHT without residues 81-84 (EL4-NC-LIGHT cells) (human, UniProt O43557 1-240)
Sequence (O43557 other isoform, or with tags, fused parts or gaps): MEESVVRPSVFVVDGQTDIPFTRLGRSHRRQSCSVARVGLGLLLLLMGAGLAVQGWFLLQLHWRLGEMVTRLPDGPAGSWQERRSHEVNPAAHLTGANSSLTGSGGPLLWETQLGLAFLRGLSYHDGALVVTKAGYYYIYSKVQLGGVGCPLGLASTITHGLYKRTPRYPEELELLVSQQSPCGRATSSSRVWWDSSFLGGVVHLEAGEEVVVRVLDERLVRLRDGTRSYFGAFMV
ASSAY TEXT: cell-based or functional assay
Answer each item with its documented IC50, nM membrane LIGHT (IL-8 release from HT-29 cells).
Mention the unit after the number when you answer.

Example cases with answers are listed next.
3A07 (antibody, human IgG4, V domains shown, chimeric human IgG4 (S-to-P, L-to-E at 248), human CL; also called Parental 3A07) VH: QVQLQQSGAELVRPGAPVTLSCKASDYTFTDSEIHWVKQTPVHGLEWIGEIDPETGGTAYNQKFKGKATLTADKSSSTAYMELRSLTSEDSAVYYCSRETDYFFDYWGQGTTLTVSS VL: ENVLTQSPAIMSASPGEKVTMTCSASSSVSYMYWYQQRPGSSPRLLIYDTSNLASGVPVRFSGSGSGTSYSLTISRMEAEDAATYYCQQWSSYPLTFGSGTKLEIK    2 nM
2B11 (antibody, human IgG4, V domains shown, chimeric human IgG4 (S-to-P, L-to-E at 248), human CL; also called Parental 2B11) VH: EVQLVESGAELVRPGVSVKISCKGSGYTFTDYAIHWVKQSHAKSLEWIGVISTYYGDASYNQKFKGKATMTVDKSSSTAYMELARLTSEDSAIYYCARSRGEYGNYDAMDYWGQGTSVTVSS VL: DIVLTQSPASLAVSLGQRATISCRASESVDSYGNSFMHWYQQKPGQPPKLLIYRASNLESGIPARFSGSGSRTDFTLTINPVEADDVATYYCQQSNEDPYTFGGGTKLEIK    0.55 nM

Kindly consider the entry below.
Supply reported IC50, nM membrane LIGHT (IL-8 release from HT-29 cells) belonging to this binder: 3C10 (antibody, human IgG4, V domains shown, chimeric human IgG4 (S-to-P, L-to-E at 248), human CL; also called Parental 3C10) VH: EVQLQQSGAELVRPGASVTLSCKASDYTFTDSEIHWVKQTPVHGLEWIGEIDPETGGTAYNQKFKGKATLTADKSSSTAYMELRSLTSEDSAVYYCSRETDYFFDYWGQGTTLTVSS VL: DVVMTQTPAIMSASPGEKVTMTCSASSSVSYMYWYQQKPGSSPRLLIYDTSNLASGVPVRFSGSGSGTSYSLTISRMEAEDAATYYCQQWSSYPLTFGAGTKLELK 1.9 nM

Value source: patent US20230035798A1
